- System: HCT116
- assay_protocol: MTT antitumour (cytotoxicity) assay, HCT116
- Assay type: cell-based
- condition_info: Homo sapiens, HCT-116, HCT116 cell line, 50% inhibition of tumour cell proliferation, read-out: In vitro cytotoxicity IC50
- Procedure: The designed compounds were evaluated for their in vitro antitumour effect using the standard MTT method against two human tumour cell lines, namely, HepG2 and HCT116[45–48]. The quantitative evaluation of the cytotoxicity was performed using tetrazolium salt MTT (3-(4,5-dimethyl-2-thiazolyl)-2,5-diphenyl-2 H-tetrazolium bromide) assay. […]
Overview of reported log10 IC50 across a group of compounds:
On a log10 scale: recorded IC50, unit µg/mL.

{"columns": ["compound", "log10 IC50"],
 "data": [
  ["CN(C)C/C=C/C(=O)Nc1cc2c(Nc3ccc(F)c(Cl)c3)ncnc2cc1O[C@H]1CCOC1 [Afatinib, afatinib, reference compound]", 1.06],
  ["CN(C)c1ccc(C=Cc2cc(C(=O)Oc3ccc(C=O)cc3)c3cc(Br)ccc3n2)cc1", 1.98],
  ["CC(=O)C(C(C)=O)C(=O)c1cc(C=Cc2ccc(N(C)C)cc2)nc2ccc(Br)cc12", 1.76],
  ["CC(=O)C(C(C)=O)C(=O)c1cc(C=Cc2ccc(N(C)C)cc2)nc2ccc(C)cc12", 1.97],
  ["CCOC(=O)C(C#N)C(=O)c1cc(C=Cc2ccc(N(C)C)cc2)nc2ccc(Br)cc12 (centres unmarked)", 1.20],
  ["CN(C)c1ccc(/C=C/c2cc(C(=O)O)c3cc(Br)ccc3n2)cc1", 0.95]
]}

In the following, a different compound is considered.
Summary for this compound, CN(C)c1ccc(C=Cc2cc(C(=O)NNc3ccccc3)c3cc(Br)ccc3n2)cc1 : log10 IC50 is 1.70

Each recorded value in this set is attributed to paper PMC7012010.
